From: patent US20040072206A1

Reported Ratio of the control reporter (RES): test reporter (MUG) values for a set of molecules
molecular target: B. subtilis RNAP (Bacillus subtilis, UniProt P37870+P37871); construct: endogenous in cells; host or cells: Bacillus subtilis strain PL37 (built from strain 168); test: Dual reporter assay in strain PL37: test reporter Pxyl-lacZ and ratio of control to test reporter (RES:MUG); format: cell-based; details: strain PL37; Dilution Number 4; DMSO control […]
Sequence (P37871 whole entry): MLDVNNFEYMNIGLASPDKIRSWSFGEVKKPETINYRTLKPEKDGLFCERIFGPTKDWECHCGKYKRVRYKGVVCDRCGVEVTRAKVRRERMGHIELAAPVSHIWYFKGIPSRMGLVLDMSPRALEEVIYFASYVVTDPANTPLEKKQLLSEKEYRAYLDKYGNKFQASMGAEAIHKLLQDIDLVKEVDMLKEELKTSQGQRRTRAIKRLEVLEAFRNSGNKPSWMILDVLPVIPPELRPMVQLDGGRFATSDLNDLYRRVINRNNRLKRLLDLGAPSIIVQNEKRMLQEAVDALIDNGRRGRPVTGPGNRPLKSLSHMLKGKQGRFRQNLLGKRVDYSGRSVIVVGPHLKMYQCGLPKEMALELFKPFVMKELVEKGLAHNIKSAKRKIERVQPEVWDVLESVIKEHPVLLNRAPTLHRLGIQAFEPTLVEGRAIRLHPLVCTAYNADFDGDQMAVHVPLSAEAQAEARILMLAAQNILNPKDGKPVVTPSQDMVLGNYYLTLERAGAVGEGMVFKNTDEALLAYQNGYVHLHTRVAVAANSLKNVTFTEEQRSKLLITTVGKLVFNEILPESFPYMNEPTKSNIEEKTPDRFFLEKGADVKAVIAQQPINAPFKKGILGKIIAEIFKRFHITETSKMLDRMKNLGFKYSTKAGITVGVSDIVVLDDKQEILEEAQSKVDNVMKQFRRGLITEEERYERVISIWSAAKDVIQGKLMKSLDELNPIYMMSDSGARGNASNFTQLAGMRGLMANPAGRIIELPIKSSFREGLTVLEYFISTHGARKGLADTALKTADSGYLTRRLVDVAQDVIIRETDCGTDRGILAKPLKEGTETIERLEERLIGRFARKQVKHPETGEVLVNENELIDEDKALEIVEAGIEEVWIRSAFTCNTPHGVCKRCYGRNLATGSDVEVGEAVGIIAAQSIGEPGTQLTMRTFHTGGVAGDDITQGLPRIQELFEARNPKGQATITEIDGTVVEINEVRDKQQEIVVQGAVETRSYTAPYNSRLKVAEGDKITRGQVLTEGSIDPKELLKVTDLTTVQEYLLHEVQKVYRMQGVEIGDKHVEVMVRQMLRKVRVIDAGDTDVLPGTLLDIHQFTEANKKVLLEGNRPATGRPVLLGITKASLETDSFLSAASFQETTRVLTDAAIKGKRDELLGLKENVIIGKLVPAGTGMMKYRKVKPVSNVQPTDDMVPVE
Sequence (P20429 whole entry, further chain): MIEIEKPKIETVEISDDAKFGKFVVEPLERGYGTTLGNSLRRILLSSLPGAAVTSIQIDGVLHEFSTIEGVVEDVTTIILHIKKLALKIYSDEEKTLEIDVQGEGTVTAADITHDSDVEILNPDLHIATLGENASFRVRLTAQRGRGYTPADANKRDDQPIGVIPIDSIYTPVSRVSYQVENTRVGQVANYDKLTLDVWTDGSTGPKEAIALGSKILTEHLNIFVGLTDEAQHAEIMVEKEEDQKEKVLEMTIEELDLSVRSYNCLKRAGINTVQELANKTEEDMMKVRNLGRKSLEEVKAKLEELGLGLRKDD
Sequence (O35011 whole entry, further chain): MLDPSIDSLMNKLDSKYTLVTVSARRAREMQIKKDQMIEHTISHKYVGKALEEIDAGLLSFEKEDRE
Sequence (P37870 whole entry): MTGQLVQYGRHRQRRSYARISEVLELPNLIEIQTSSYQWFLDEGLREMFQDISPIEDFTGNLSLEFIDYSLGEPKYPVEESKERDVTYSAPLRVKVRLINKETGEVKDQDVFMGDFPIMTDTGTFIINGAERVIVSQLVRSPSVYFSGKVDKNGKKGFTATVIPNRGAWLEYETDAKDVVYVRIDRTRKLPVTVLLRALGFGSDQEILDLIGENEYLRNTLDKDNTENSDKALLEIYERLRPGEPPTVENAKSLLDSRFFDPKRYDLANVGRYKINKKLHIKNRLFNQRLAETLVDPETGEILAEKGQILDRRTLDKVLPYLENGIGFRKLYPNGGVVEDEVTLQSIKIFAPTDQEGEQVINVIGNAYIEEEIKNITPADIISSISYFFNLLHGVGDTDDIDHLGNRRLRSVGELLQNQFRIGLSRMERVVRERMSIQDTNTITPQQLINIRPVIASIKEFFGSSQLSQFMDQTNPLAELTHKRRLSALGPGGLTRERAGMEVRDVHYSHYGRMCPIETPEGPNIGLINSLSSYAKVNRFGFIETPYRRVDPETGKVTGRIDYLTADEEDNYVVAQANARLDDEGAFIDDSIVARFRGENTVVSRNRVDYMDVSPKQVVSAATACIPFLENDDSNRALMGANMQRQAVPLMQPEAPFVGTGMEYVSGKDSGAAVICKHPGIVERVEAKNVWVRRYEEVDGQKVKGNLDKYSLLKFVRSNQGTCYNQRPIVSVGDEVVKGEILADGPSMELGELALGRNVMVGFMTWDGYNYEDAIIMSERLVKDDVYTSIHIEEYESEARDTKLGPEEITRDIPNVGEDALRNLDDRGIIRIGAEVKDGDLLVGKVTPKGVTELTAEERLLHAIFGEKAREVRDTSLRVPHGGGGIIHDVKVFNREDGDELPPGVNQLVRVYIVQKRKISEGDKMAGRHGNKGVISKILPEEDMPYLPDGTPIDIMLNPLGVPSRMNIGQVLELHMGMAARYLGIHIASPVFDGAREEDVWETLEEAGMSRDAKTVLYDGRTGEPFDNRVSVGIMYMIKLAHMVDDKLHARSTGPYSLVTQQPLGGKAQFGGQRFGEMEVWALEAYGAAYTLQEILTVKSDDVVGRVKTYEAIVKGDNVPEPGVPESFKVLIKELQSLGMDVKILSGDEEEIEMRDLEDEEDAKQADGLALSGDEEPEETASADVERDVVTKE
propertyName: Ratio of the control reporter (RES): test reporter (MUG)

- molecule: "CN[C@@H]1[C@H](O)[C@H](NC)[C@H]2O[C@@]3(O)C(=O)C[C@@H](C)O[C@H]3O[C@@H]2[C@H]1O"
  systemName: "B. subtilis RNAP (Bacillus subtilis, UniProt P37870+P37871)"
  experimentalResult: 1.14
- molecule: "CC[C@H]1OC(=O)[C@H](C)[C@@H](O[C@H]2C[C@@](C)(OC)[C@@H](O)[C@H](C)O2)[C@H](C)[C@@H](O[C@@H]2O[C@H](C)C[C@H](N(C)C)[C@H]2O)[C@](C)(O)C[C@@H](C)C(=O)[C@H](C)[C@@H](O)[C@]1(C)O"
  systemName: "B. subtilis RNAP (Bacillus subtilis, UniProt P37870+P37871)"
  experimentalResult: 1.45
- molecule: "CCn1cc(C(=O)O)c(=O)c2cc3c(cc21)OCO3"
  systemName: "B. subtilis RNAP (Bacillus subtilis, UniProt P37870+P37871)"
  experimentalResult: 1.77
- molecule: "CC(O)C(=O)O.COc1cc(Cc2cnc(N)nc2N)cc(OC)c1OC [Trimethoprim Lactate]"
  systemName: "B. subtilis RNAP (Bacillus subtilis, UniProt P37870+P37871)"
  experimentalResult: 0.52
- molecule: "O=C(N[C@H](CO)[C@H](O)c1ccc([N+](=O)[O-])cc1)C(Cl)Cl"
  systemName: "B. subtilis RNAP (Bacillus subtilis, UniProt P37870+P37871)"
  experimentalResult: 1.40
- molecule: "CO[C@@H]1[C@@H](OC(N)=O)[C@@H](O)[C@H](Oc2ccc3c(O)c(NC(=O)c4ccc(O)c(CC=C(C)C)c4)c(=O)oc3c2C)OC1(C)C"
  systemName: "B. subtilis RNAP (Bacillus subtilis, UniProt P37870+P37871)"
  experimentalResult: 1.49
